# TARGET OF ASSAY: recombinant soluble homotrimeric HA of A/northern shoveler/California/HKWF115/07 (H6) (Influenza A virus A/northern shoveler/California/HKWF115/2007(H6N1))
# PROTOCOL SUMMARY: trimeric HA microarray, transfection supernatant set 5
# PARTICULARS: remark: other sources report otherwise
I'd be grateful if you could share measured Trimeric HA Binding: RLU for these entries.
Give the number; RLU is assumed, so skip it.

For the binder TCN-538 (3206_O17) (antibody, V domains shown) VH: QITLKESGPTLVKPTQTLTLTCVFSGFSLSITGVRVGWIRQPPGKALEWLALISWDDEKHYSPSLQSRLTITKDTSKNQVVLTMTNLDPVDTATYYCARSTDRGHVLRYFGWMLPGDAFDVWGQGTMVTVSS VL: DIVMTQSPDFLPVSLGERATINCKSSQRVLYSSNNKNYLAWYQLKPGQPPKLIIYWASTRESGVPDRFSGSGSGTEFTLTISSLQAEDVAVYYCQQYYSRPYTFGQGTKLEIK , report Trimeric HA Binding: RLU. 8900

Write down Trimeric HA Binding: RLU measured for item TCN-539 (5056_A08) (antibody, V domains shown) VH: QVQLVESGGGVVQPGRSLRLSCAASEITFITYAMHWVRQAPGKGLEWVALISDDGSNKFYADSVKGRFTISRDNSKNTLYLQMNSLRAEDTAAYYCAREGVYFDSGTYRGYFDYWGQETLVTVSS VL: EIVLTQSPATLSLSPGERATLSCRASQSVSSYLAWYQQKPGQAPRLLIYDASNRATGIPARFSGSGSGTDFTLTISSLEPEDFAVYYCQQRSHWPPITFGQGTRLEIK 2860

Respond only with Trimeric HA Binding: RLU recorded for TCN-543 (5081_G23) (antibody, V domains shown) VH: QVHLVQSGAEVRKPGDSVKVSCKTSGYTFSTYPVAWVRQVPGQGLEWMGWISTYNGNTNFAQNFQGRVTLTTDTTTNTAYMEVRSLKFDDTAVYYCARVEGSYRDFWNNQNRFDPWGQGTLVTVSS VL: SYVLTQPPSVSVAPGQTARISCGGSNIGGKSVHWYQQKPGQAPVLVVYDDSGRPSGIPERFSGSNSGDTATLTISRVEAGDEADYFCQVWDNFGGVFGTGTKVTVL 2510

Provide measured Trimeric HA Binding: RLU value, entry: TCN-546 (5089_L08) (antibody, V domains shown) VH: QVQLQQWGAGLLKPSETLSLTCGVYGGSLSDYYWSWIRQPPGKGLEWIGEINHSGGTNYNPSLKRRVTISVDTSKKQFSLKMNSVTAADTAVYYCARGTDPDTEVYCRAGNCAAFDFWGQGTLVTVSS VL: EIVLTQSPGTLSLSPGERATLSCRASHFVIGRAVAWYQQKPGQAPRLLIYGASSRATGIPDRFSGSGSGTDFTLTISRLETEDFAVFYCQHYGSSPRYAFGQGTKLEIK 2430

State its Trimeric HA Binding: RLU: TCN-542 (5079_A16) (antibody, V domains shown) VH: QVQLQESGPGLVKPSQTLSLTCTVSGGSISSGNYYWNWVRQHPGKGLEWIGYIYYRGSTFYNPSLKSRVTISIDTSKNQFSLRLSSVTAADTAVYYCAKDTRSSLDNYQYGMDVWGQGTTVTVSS VL: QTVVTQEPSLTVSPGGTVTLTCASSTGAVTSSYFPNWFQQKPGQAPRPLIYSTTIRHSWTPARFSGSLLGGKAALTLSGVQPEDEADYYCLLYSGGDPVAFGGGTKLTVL 2370

Specify Trimeric HA Binding: RLU for TCN-544 (5082_A19) (antibody, V domains shown) VH: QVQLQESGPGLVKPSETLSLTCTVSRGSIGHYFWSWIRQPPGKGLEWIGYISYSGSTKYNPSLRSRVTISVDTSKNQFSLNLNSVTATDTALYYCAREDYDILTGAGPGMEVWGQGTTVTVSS VL: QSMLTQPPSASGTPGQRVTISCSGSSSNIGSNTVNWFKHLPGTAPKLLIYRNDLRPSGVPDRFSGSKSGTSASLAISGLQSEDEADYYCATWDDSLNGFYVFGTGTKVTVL and stop. 2920

Determine from records and report Trimeric HA Binding: RLU for TCN-540 (5060_F05) (antibody, V domains shown) VH: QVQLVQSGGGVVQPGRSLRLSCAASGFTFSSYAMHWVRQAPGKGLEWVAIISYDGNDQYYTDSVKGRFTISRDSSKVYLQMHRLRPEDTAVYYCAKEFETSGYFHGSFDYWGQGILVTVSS VL: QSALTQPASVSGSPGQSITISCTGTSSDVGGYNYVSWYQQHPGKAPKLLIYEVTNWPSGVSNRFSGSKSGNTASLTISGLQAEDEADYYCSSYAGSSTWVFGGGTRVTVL 2460

The measured values listed here are drawn from patent US20150086555A1.
